Values from patent US20220033501A1

# target.under.test: T1, human TIM-3 protein with hFc tag (hTIM-3-hFc protein) (human, UniProt Q8TDQ0 22-200)
# T1 construct: also called immunogen 1; human TIM-3 extracellular domain protein; not shown: human IgG Fc fragment (hFc) of the pCpC vector
# T1 sequence: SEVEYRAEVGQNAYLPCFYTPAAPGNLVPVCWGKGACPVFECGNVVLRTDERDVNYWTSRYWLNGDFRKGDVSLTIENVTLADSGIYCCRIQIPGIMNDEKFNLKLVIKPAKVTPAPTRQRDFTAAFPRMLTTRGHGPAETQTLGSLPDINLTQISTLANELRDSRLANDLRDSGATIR
# measurement.description: ELISA, coated hTIM-3-hFc; antibody 0 nM (blank)
Examples of binders with documented OD450 follow.
metric: OD450

{"columns": ["binder", "reported.result"],
 "data": [
  ["39E5H1 (TIM-3 antibody purified from hybridoma, chimeric antibody of Example 2) (antibody, V domains shown, From hybridoma of Harbour H2L2 transgenic mice: human variable regions, rat constant regions) VH: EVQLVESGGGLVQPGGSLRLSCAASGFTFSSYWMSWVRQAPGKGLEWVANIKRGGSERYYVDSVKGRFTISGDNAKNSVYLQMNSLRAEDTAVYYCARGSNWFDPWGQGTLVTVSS VL: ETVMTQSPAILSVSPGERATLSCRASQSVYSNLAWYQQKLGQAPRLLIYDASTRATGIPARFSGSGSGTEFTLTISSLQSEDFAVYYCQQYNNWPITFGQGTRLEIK", 0.12],
  ["18D2H2 (TIM-3 antibody purified from hybridoma, chimeric antibody of Example 2) (antibody, V domains shown, From hybridoma of Harbour H2L2 transgenic mice: human variable regions, rat constant regions) VH: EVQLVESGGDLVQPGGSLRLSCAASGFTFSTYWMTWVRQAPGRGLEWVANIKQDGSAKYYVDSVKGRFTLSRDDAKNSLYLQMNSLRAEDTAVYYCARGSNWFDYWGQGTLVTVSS VL: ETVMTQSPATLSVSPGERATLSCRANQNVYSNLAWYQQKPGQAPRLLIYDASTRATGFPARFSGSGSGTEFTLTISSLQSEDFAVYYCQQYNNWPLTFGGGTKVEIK", 0.11],
  ["134H3G6 (TIM-3 antibody purified from hybridoma, chimeric antibody of Example 2) (antibody, V domains shown, From hybridoma of Harbour H2L2 transgenic mice: human variable regions, rat constant regions) VH: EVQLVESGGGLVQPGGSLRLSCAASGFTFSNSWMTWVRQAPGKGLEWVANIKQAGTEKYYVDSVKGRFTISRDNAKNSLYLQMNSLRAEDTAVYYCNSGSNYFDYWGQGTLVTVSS VL: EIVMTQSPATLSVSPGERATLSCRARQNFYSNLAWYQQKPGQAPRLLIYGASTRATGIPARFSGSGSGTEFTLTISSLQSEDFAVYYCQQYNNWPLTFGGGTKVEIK", 0.12]
]}
